The origin of these recorded values is ChEMBL document CHEMBL5291721.

Here's a batch of molecules along with measured AC50 for D(1A) dopamine receptor (Homo sapiens).

{"COMPOUND": "CC1=C(C/C=C(\\C)CCC[C@H](C)CCC[C@H](C)CCCC(C)C)C(=O)c2ccccc2C1=O", "STUDY_SYSTEM": "D(1A) dopamine receptor (Homo sapiens)", "AC50": "> 30 µM"}
{"COMPOUND": "CO[C@H]1/C=C/O[C@@]2(C)Oc3c(C)c(O)c4c(c3C2=O)C2=NC3(CCN(CC(C)C)CC3)NC2=C(NC(=O)/C(C)=C\\C=C\\[C@H](C)[C@H](O)[C@@H](C)[C@@H](O)[C@@H](C)[C@H](OC(C)=O)[C@@H]1C)C4=O", "STUDY_SYSTEM": "D(1A) dopamine receptor (Homo sapiens)", "AC50": "> 30 µM"}
{"COMPOUND": "O=NN(CCCl)C(=O)NCCCl", "STUDY_SYSTEM": "D(1A) dopamine receptor (Homo sapiens)", "AC50": "> 30 µM"}

---

STUDY_SYSTEM: Alpha-2A adrenergic receptor (Homo sapiens); note: assay procedure not described here
Sequence (P08913 whole entry): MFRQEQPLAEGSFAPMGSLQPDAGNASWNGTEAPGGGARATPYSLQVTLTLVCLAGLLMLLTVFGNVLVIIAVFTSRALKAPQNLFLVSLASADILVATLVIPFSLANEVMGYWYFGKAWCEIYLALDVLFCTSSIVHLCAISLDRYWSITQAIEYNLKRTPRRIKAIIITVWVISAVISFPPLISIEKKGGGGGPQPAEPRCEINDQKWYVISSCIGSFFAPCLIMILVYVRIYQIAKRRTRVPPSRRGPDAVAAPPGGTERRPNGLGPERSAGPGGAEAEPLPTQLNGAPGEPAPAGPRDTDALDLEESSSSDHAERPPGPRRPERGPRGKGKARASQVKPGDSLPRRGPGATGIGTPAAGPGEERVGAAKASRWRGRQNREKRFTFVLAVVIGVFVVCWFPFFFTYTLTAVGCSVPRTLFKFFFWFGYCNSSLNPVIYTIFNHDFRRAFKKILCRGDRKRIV
Assay type: functional, cell-based
Each record here notes measured AC50.

{"COMPOUND": "COc1cc(C(=O)NCc2ccc(OCCN(C)C)cc2)cc(OC)c1OC [TRIMETHOBENZAMIDE]", "AC50": "> 30 µM"}
{"COMPOUND": "CC(C)(N)Cc1ccccc1 [PHENTERMINE]", "AC50": "> 10 µM"}
{"COMPOUND": "COC(=O)c1ccc2c(c1)NC(=O)/C2=C(\\Nc1ccc(N(C)C(=O)CN2CCN(C)CC2)cc1)c1ccccc1 [NINTEDANIB]", "AC50": "> 30 µM"}
{"COMPOUND": "Cc1cccc(Nc2ccncc2S(=O)(=O)NC(=O)NC(C)C)c1 [TORSEMIDE]", "AC50": "> 10 µM"}
{"COMPOUND": "NS(=O)(=O)c1ccc(N2CCCCS2(=O)=O)cc1", "AC50": "> 30 µM"}
{"COMPOUND": "C[C@]12CCC(=O)C=C1CC[C@H]1[C@@H]3CC[C@](O)(C(=O)CO)[C@@]3(C)C[C@H](O)[C@@]12F [FLUDROCORTISONE]", "AC50": "> 10 µM"}
{"COMPOUND": "CCOC(=O)O[C@]1(C(=O)COC(=O)CC)CC[C@H]2[C@@H]3CCC4=CC(=O)C=C[C@]4(C)[C@H]3[C@@H](O)C[C@@]21C [PREDNICARBATE]", "AC50": "> 10 µM"}
{"COMPOUND": "C[C@@H](O)[C@H]1C(=O)N2C(C(=O)O)=C(SCCN=CN)C[C@H]12 [IMIPENEM ANHYDROUS]", "AC50": "> 300 µM"}
{"COMPOUND": "CCC[C@@]1(CCc2ccccc2)CC(O)=C([C@H](CC)c2cccc(NS(=O)(=O)c3ccc(C(F)(F)F)cn3)c2)C(=O)O1", "AC50": "> 30 µM"}
{"COMPOUND": "CC(C)(C)NCC(O)COc1cccc2c1CC(O)C(O)C2 (configuration not stated) [NADOLOL]", "AC50": "> 10 µM"}
{"COMPOUND": "CN(C)CCOCC(=O)NC12CC3CC(CC(C3)C1)C2 [TROMANTADINE]", "AC50": "> 30 µM"}
{"COMPOUND": "O=C(O)CCCC[C@@H]1SC[C@@H]2NC(=O)N[C@@H]21 [BIOTIN]", "AC50": "> 10 µM"}
{"COMPOUND": "O=C(O)c1ccc2nc(-c3cc(Cl)cc(Cl)c3)oc2c1", "AC50": "> 30 µM"}
{"COMPOUND": "N[C@@H](Cc1cc(I)c(Oc2cc(I)c(O)c(I)c2)c(I)c1)C(=O)O [LEVOTHYROXINE]", "AC50": "> 30 µM"}
{"COMPOUND": "CC1NCCOC1c1ccccc1 (configuration not stated) [PHENMETRAZINE]", "AC50": "> 10 µM"}
{"COMPOUND": "CCOC(=O)C1=C(C)NC(C)=C(C(=O)OC)C1c1cccc(Cl)c1Cl (configuration not stated) [FELODIPINE]", "AC50": "> 10 µM"}
{"COMPOUND": "C[C@H](CS)C(=O)N1CCC[C@H]1C(=O)O [CAPTOPRIL]", "AC50": "> 10 µM"}
{"COMPOUND": "COc1cc2c(cc1OC)C1CC(=O)C(CC(C)C)CN1CC2 (configuration not stated) [TETRABENAZINE]", "AC50": "> 30 µM"}
{"COMPOUND": "C[C@]12CCC(=O)C=C1C=C[C@@H]1[C@@H]2CC[C@@]2(C)[C@H]1CC[C@@]21CCC(=O)O1 [CANRENONE]", "AC50": "> 30 µM"}
{"COMPOUND": "CCCCC[C@H](O)CC[C@@H]1[C@H]2Cc3cccc(OCC(=O)O)c3C[C@H]2C[C@H]1O [TREPROSTINIL]", "AC50": "> 30 µM"}
{"COMPOUND": "c1cnc2cc3c(cc2n1)[C@@H]1CNC[C@H]3C1 [VARENICLINE]", "AC50": "> 30 µM"}
{"COMPOUND": "CN(C)CCCC1(c2ccc(F)cc2)OCc2cc(C#N)ccc21 (configuration not stated) [CITALOPRAM]", "AC50": "> 10 µM"}
{"COMPOUND": "CCC1(C)CC(=O)NC1=O (configuration not stated) [ETHOSUXIMIDE]", "AC50": "> 10 µM"}
{"COMPOUND": "Nc1nnc(-c2cccc(Cl)c2Cl)c(N)n1 [LAMOTRIGINE]", "AC50": "> 10 µM"}
{"COMPOUND": "CC(=O)OCC1=C(C(=O)O)N2C(=O)[C@@H](NC(=O)CSc3ccncc3)[C@H]2SC1 [CEPHAPIRIN]", "AC50": "> 10 µM"}
{"COMPOUND": "CC1=C(CC(=O)O)c2cc(F)ccc2/C1=C\\c1ccc([S+](C)[O-])cc1 (configuration not stated)", "AC50": "> 10 µM"}
{"COMPOUND": "Nc1nc(Cl)nc2c1ncn2[C@@H]1O[C@H](CO)[C@@H](O)[C@@H]1F [CLOFARABINE]", "AC50": "> 10 µM"}
{"COMPOUND": "CCCCOC(=O)c1ccc(N)cc1 [BUTAMBEN]", "AC50": "> 30 µM"}
{"COMPOUND": "C=C(c1ccccc1OCc1cccc(Cl)c1)n1ccnc1 [CROCONAZOLE]", "AC50": "> 10 µM"}
{"COMPOUND": "NCC1(CC(=O)O)CCCCC1 [GABAPENTIN]", "AC50": "> 30 µM"}
{"COMPOUND": "CC1=C(C(=O)O)N2C(=O)[C@@H](NC(=O)[C@H](N)C3=CCC=CC3)[C@H]2SC1 [CEPHRADINE]", "AC50": "> 30 µM"}
{"COMPOUND": "CC(=O)N1CCN(c2ccc(OCC3COC(Cn4ccnc4)(c4ccc(Cl)cc4Cl)O3)cc2)CC1 (configuration not stated) [KETOCONAZOLE]", "AC50": "> 10 µM"}
{"COMPOUND": "CCN1C(=O)NC(c2ccccc2)C1=O (configuration not stated) [ETHOTOIN]", "AC50": "> 30 µM"}
{"COMPOUND": "CNC1(C)C2CCC(C2)C1(C)C (configuration not stated) [MECAMYLAMINE]", "AC50": "> 10 µM"}
{"COMPOUND": "CCCCCCCC(=O)CC[C@@H]1[C@@H](C/C=C\\CCCC(=O)O)[C@@H](O)C[C@H]1O [UNOPROSTONE]", "AC50": "> 30 µM"}
{"COMPOUND": "Cc1ccc(O)c([C@H](CCN(C(C)C)C(C)C)c2ccccc2)c1 [TOLTERODINE]", "AC50": "> 10 µM"}
{"COMPOUND": "COc1ccc(-c2cc(=S)ss2)cc1 [ANETHOLTRITHION]", "AC50": "> 30 µM"}

---

Here's a batch of compounds along with measured AC50 for Adenosine receptor A3 (Homo sapiens).

{"COMPOUND": "CC1(C)S[C@@H]2[C@H](NC(=O)[C@H](NC(=O)c3cnc4cccnc4c3O)c3ccccc3)C(=O)N2[C@H]1C(=O)O", "STUDY_SYSTEM": "Adenosine receptor A3 (Homo sapiens)", "QUALIFIER": "=", "AC50 / µM": 29}
{"COMPOUND": "C#C[C@]1(OC(C)=O)CC[C@H]2[C@@H]3CCC4=CC(=O)CC[C@@H]4[C@H]3CC[C@@]21C [NORETHINDRONE ACETATE]", "STUDY_SYSTEM": "Adenosine receptor A3 (Homo sapiens)", "QUALIFIER": "=", "AC50 / µM": 0.838}
{"COMPOUND": "CCCCC(=O)O[C@H]1CC[C@H]2[C@@H]3CCc4cc(O)ccc4[C@H]3CC[C@]12C [ESTRADIOL VALERATE]", "STUDY_SYSTEM": "Adenosine receptor A3 (Homo sapiens)", "QUALIFIER": "=", "AC50 / µM": 6.74}
{"COMPOUND": "COc1cccc2c1C(=O)c1c(O)c3c(c(O)c1C2=O)C[C@@](O)(C(=O)CO)C[C@@H]3O[C@H]1C[C@H](N)[C@H](O)[C@H](C)O1", "STUDY_SYSTEM": "Adenosine receptor A3 (Homo sapiens)", "QUALIFIER": ">", "AC50 / µM": 30}
{"COMPOUND": "C[C@H]1C[C@H]2[C@@H]3CCC4=CC(=O)C=C[C@]4(C)[C@@]3(F)[C@@H](O)C[C@]2(C)[C@@]1(O)C(=O)CO", "STUDY_SYSTEM": "Adenosine receptor A3 (Homo sapiens)", "QUALIFIER": ">", "AC50 / µM": 30}
{"COMPOUND": "CCOC(=O)[C@H](CCc1ccccc1)N[C@@H](C)C(=O)N1Cc2ccccc2C[C@H]1C(=O)O", "STUDY_SYSTEM": "Adenosine receptor A3 (Homo sapiens)", "QUALIFIER": ">", "AC50 / µM": 30}
{"COMPOUND": "C[C@]12CC[C@@H]3c4ccc(OC(=O)N(CCCl)CCCl)cc4CC[C@H]3[C@@H]1CC[C@@H]2OP(=O)(O)O [ESTRAMUSTINE PHOSPHATE]", "STUDY_SYSTEM": "Adenosine receptor A3 (Homo sapiens)", "QUALIFIER": "=", "AC50 / µM": 7.84}
{"COMPOUND": "CCCCCCO[C@@H](C)c1cccc(-c2csc(NC(=O)c3cc(Cl)c(/C=C(\\C)C(=O)O)c(Cl)c3)n2)c1OC", "STUDY_SYSTEM": "Adenosine receptor A3 (Homo sapiens)", "QUALIFIER": "=", "AC50 / µM": 0.334}
{"COMPOUND": "CC(C)N1CCN(c2ccc(OCC3COC(Cn4cncn4)(c4ccc(Cl)cc4Cl)O3)cc2)CC1 (stereo not given)", "STUDY_SYSTEM": "Adenosine receptor A3 (Homo sapiens)", "QUALIFIER": ">", "AC50 / µM": 30}
{"COMPOUND": "Cc1cn(-c2cc(NC(=O)c3ccc(C)c(Nc4nccc(-c5cnccn5)n4)c3)cc(C(F)(F)F)c2)cn1", "STUDY_SYSTEM": "Adenosine receptor A3 (Homo sapiens)", "QUALIFIER": "=", "AC50 / µM": 0.298}
{"COMPOUND": "O=c1[nH]c(=O)n([C@H]2C[C@H](O)[C@@H](CO)O2)cc1/C=C/Br", "STUDY_SYSTEM": "Adenosine receptor A3 (Homo sapiens)", "QUALIFIER": ">", "AC50 / µM": 30}
{"COMPOUND": "CC1=C(C/C=C(\\C)CCC[C@H](C)CCC[C@H](C)CCCC(C)C)C(=O)c2ccccc2C1=O", "STUDY_SYSTEM": "Adenosine receptor A3 (Homo sapiens)", "QUALIFIER": ">", "AC50 / µM": 30}
{"COMPOUND": "COc1ncnc(NS(=O)(=O)c2ccc(N)cc2)c1OC", "STUDY_SYSTEM": "Adenosine receptor A3 (Homo sapiens)", "QUALIFIER": ">", "AC50 / µM": 30}
{"COMPOUND": "NS(=O)(=O)c1cc2c(cc1Cl)NC(C(Cl)Cl)NS2(=O)=O (stereo not given) [TRICHLORMETHIAZIDE]", "STUDY_SYSTEM": "Adenosine receptor A3 (Homo sapiens)", "QUALIFIER": ">", "AC50 / µM": 30}
{"COMPOUND": "N[C@@H](Cc1ccc(O)cc1)C(=O)O", "STUDY_SYSTEM": "Adenosine receptor A3 (Homo sapiens)", "QUALIFIER": ">", "AC50 / µM": 30}
